# Method summary: Mouse Pharmacokinetic Studies (50 mg/kg oral gavage, plasma LC-MS/MS)
# Assay type: in vivo
# Experimental conditions: male, C57BL/6, mouse, po, 50 mg/kg, male C57BL/6 mice, non-fasted

{"Molecule": "CC(c1ccccc1F)c1c(F)ccc2c1NC(NCc1ncccc1F)=NS2(=O)=O (single isomer, unassigned) [Compound 10-1A]", "half-life": "2.6 h"}
{"Molecule": "C[C@@H](c1ccccc1F)c1c(F)c(F)cc2c1NC(NCc1ncccc1F)=NS2(=O)=O", "half-life": "2.1 h"}
{"Molecule": "O=S1(=O)N=C(NCc2ncccc2F)Nc2c1ccc(F)c2Oc1ccccc1Cl", "half-life": "2.8 h"}
{"Molecule": "CC(c1ccccc1F)c1c(F)ccc2c1NC(NCc1cccc(F)n1)=NS2(=O)=O (single isomer, unassigned)", "half-life": "2.3 h"}
{"Molecule": "CC(c1ccccc1F)c1c(F)ccc2c1NC(NCc1cccc(F)c1)=NS2(=O)=O (single isomer, unassigned)", "half-life": "2.2 h"}
{"Molecule": "CC(c1ccccc1F)c1c(F)ccc2c1NC(NCc1ncccc1F)=NS2(=O)=O (stereo not drawn) [Compound 9-1]", "half-life": "1.8 h"}
{"Molecule": "Cc1c(F)cccc1CNC1=NS(=O)(=O)c2ccc(F)c(C(C)c3ccccc3F)c2N1 (single isomer, unassigned)", "half-life": "2.5 h"}
{"Molecule": "CC(c1ccc(F)cc1)c1c(F)ccc2c1NC(NCc1ncccc1F)=NS2(=O)=O (single isomer, unassigned)", "half-life": "4.4 h"}
{"Molecule": "O=S1(=O)N=C(NCc2ncccc2F)Nc2c(Oc3ccccc3Cl)cc(F)cc21", "half-life": "3.8 h"}

====

# Method summary: Mouse Pharmacokinetic Studies (50 mg/kg oral gavage, plasma LC-MS/MS)
# Type: in vivo
# Experimental conditions: male, C57BL/6, mouse, po, 50 mg/kg, male C57BL/6 mice, non-fasted
The label class 1 is reserved for Cmax strictly under 10 µM; class 0 covers values equal to or above it.

{"Compound": "C[C@@H](c1ccccc1F)c1c(F)c(F)cc2c1NC(NCc1ncccc1F)=NS2(=O)=O", "Assigned class": "class 0"}
{"Compound": "CC(c1ccccc1F)c1c(F)ccc2c1NC(NCc1cccc(F)n1)=NS2(=O)=O (single isomer, unassigned)", "Assigned class": "class 1"}
{"Compound": "CC(c1ccccc1F)c1c(F)ccc2c1NC(NCc1ncccc1F)=NS2(=O)=O (stereo not shown)", "Assigned class": "class 1"}
{"Compound": "O=S1(=O)N=C(NCc2ncccc2F)Nc2c(Oc3ccccc3Cl)cc(F)cc21", "Assigned class": "class 1"}
{"Compound": "CC(c1ccc(F)cc1)c1c(F)ccc2c1NC(NCc1ncccc1F)=NS2(=O)=O (single isomer, unassigned)", "Assigned class": "class 1"}
{"Compound": "O=S1(=O)N=C(NCc2ncccc2F)Nc2c1ccc(F)c2Oc1ccccc1Cl", "Assigned class": "class 0"}
{"Compound": "C[C@H](c1ccccc1F)c1c(F)c(F)cc2c1NC(NCc1ncccc1F)=NS2(=O)=O", "Assigned class": "class 1"}

====

# Tested system: human MRGPRX2 (Homo sapiens, UniProt Q96LB1)
# Sequence (Q96LB1 1-330): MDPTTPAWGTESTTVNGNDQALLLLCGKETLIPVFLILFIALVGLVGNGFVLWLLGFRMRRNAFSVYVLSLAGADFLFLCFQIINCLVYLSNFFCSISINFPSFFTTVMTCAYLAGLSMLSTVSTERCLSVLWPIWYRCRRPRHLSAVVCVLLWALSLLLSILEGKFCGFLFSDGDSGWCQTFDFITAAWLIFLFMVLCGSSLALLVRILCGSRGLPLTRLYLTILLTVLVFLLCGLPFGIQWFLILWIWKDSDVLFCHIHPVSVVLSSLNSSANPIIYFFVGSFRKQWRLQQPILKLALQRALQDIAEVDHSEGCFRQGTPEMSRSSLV
# Method summary: MRGPRX2 activity: IP-One Gq HTRF assay in CHO cells, antagonism versus 0.3 uM Cortistatin-14
# Experimental conditions: versus 0.3 uM Cortistatin-14 agonist, CHO cells expressing human MRGPRX2, read-out: MRGPRX2 Antagonist Activity
pIC50: −log10 of the molar value.
Overview of reported pIC50 across a group of compounds:

{"Chem smiles": "O=S1(=O)N=C(NCc2ccccc2)Nc2c1ccc(F)c2Oc1ccccc1Cl", "pIC50": "> 7.00"}
{"Chem smiles": "O=S1(=O)N=C(NCc2ncccc2F)Nc2c1ccc(F)c2Oc1ccc(Cl)cc1Cl", "pIC50": "6.30 to 7.00"}
{"Chem smiles": "O=S1(=O)N=C(NCc2cccc3ccccc23)Nc2c1cc(F)c(F)c2Cc1ccccc1Cl", "pIC50": "6.00 to 6.30"}
{"Chem smiles": "O=S1(=O)N=C(NCc2cccnc2C(F)(F)F)Nc2c(Cc3ccccc3Cl)cccc21", "pIC50": "> 7.00"}

// data source = patent US20250170141A1
